biological target: human delta-like ligand 3 (DLL3) on SHP77 cells (human) (UniProt Q9NYJ7); experiment: FACS on SHP77 cells
Sequence (Q9NYJ7 27-618, stated change not applied): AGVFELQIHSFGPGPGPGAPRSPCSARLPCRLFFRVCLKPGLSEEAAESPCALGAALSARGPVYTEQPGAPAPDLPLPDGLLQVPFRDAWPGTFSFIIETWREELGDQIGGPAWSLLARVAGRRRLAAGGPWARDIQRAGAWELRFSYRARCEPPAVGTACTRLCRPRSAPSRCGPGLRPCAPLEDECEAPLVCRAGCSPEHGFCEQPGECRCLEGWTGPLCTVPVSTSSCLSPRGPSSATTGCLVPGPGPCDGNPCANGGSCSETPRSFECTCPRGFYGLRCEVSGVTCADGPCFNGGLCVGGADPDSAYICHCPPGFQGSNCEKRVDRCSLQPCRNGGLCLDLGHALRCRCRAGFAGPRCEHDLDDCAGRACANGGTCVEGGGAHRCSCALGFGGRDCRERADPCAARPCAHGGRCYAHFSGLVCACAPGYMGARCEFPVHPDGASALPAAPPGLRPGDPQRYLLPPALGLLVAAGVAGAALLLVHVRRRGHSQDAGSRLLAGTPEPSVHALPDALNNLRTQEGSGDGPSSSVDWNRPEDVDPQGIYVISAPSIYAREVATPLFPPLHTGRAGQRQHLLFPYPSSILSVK
Threshold check on MFI at 0.8 nM: at or above 400 MFI gives Fulfilled, strictly below gives Not fulfilled.

>>> category("Hab013VL2VH2a-hFc (scFv, part only; not given: scFv linker and human IgG1 Fc, V domains shown, not shown: another chain or arm of the molecule; a dimerising Fc or GST; small tags and cut ends) VL: EIVLTQSPATLSLSPGERATLSCRASKSVSTSGFSYMHWYQQKPGQPPRLLIYLASNLESGIPARFSGSGSGTDFTLTISSLEPEDFAVYYCQHSRELPFTFGQGTKLEIK VH: EVQLVQSGAEVKKPGSSVKVSCKASGYAFSNYWINWVRQAPGQGLEWMGQINPGDGDTIYNSKFKGRVTITADKSTSTAYMELSSLRSEDTAVYYCEREGRNYGDFAYWGQGTTVTVSS")
"Fulfilled"
>>> category("Hab008L3H2a-hFc (scFv, part only; not given: VL-VH linker and human IgG1 Fc, V domains shown, not shown: another chain or arm of the molecule; a dimerising Fc or GST; small tags and cut ends) VL: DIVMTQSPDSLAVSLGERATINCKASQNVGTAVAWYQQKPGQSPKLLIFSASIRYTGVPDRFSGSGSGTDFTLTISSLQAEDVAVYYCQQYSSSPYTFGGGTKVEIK VH: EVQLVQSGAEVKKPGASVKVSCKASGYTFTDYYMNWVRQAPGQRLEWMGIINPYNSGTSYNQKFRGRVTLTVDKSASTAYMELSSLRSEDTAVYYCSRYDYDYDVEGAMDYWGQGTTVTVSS")
"Not fulfilled"
>>> category("Hab014VL3VH1-hFc (scFv, part only; not given: VL-VH linker and human IgG1 Fc, V domains shown, not shown: another chain or arm of the molecule; a dimerising Fc or GST; small tags and cut ends) VL: DIVMTQSPDSLAVSLGERATINCKASEDIYNRLAWYQQKPGQTPKLLISGATSLETGVPDRFSGSGSGKDFTLTISSLQAEDVAVYYCQQYWSLPWTFGGGTKVEIK VH: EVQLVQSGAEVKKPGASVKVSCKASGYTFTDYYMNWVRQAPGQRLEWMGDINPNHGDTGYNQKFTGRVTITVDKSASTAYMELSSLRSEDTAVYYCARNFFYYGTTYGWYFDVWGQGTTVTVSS")
"Not fulfilled"
>>> category("Hab009VL1aVH1-hFc (scFv, part only; not given: scFv linker and human IgG1 Fc, V domains shown, not shown: another chain or arm of the molecule; a dimerising Fc or GST; small tags and cut ends) VL: DIVMTQSPLSLPVTPGEPASISCRASQTISDYLHWYLQKPGQSPQLLIKYASQSISGVPDRFSGSGSGSDFTLKISRVEAEDVGVYYCQQGHSFPLTFGQGTKLEIK VH: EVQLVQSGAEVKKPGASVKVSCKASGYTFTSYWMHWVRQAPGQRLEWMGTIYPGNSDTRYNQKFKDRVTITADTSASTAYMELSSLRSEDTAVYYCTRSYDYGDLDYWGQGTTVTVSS")
"Fulfilled"

Decide: is the reported value of MFI at 0.8 nM for Hab015VL4VH6a-hFc (scFv, part only; not given: scFv linker and human IgG1 Fc, V domains shown, not shown: another chain or arm of the molecule; a dimerising Fc or GST; small tags and cut ends) VL: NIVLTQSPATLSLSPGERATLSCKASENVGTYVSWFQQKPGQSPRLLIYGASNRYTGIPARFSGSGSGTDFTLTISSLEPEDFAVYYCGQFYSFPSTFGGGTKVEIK VH: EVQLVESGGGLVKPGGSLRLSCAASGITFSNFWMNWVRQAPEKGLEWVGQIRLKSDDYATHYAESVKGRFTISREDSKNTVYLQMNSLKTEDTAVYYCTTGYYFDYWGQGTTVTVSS equal to or greater than 400 MFI?
Fulfilled

Does the binder Hab015VL5VH1a-hFc (scFv, part only; not given: scFv linker and human IgG1 Fc, V domains shown, not shown: another chain or arm of the molecule; a dimerising Fc or GST; small tags and cut ends) VL: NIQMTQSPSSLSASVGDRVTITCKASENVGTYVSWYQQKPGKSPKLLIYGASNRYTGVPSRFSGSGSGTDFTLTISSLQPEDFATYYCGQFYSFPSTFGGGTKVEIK VH: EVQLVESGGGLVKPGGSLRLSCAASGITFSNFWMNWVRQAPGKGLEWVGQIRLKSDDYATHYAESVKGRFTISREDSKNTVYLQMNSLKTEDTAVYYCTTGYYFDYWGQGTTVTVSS have recorded MFI at 0.8 nM that is 400 MFI or more?
Fulfilled

Evaluate Hab015VL4VH1a-hFc (scFv, part only; not given: scFv linker and human IgG1 Fc, V domains shown, not shown: another chain or arm of the molecule; a dimerising Fc or GST; small tags and cut ends) VL: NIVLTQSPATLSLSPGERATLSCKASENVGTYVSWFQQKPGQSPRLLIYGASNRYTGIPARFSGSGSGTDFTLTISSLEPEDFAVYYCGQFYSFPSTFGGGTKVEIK VH: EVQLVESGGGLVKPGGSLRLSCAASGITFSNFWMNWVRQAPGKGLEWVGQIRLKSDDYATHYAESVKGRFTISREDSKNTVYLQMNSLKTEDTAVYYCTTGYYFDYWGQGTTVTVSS : MFI at 0.8 nM at minimum 400 MFI?
Fulfilled

Reported MFI at 0.8 nM at or above 400 MFI? Hab015VL4VH1b-hFc (scFv, part only; not given: VL-VH linker and human IgG1 Fc, V domains shown, not shown: another chain or arm of the molecule; a dimerising Fc or GST; small tags and cut ends) VL: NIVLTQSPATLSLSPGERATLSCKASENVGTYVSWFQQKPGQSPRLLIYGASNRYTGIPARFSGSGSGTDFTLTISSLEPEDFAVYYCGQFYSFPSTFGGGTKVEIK VH: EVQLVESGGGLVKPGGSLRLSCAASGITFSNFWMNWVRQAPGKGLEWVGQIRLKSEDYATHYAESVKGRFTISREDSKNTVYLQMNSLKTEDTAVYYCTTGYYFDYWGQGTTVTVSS
Fulfilled

Is MFI at 0.8 nM for Hab006VL1VH4-hFc (scFv, part only; not given: VL-VH linker and human IgG1 Fc, V domains shown, not shown: another chain or arm of the molecule; a dimerising Fc or GST; small tags and cut ends) VL: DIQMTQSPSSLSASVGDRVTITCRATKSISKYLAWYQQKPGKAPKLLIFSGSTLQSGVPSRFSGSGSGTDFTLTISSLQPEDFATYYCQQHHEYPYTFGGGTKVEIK VH: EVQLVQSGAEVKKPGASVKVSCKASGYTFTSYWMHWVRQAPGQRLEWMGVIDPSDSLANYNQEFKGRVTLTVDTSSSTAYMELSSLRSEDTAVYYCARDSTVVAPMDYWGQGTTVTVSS at or above 400 MFI?
Fulfilled
